System: T-47D breast
Assay Text: NCI-60 one-dose screen, 48 h
Test Settings: 10 µM unless noted
This is part of a sample that, as a whole, favours compounds with a hit. Of some 83,000 tested, about 20% had one in any assay. Activity calls are given as the source filed them. How the source made its calls: active means growth percent below 10; inactive means the rest.
# valid calls are t for active, f for inactive; nothing else

Recorded results for 4 molecules are shown here.
Cpd Smiles	Label
CCOc1cc(NC(=O)c2ccccc2)c(OCC)cc1N	f
O=S(=O)(NCCNc1nccc(-c2c(-c3cccc(F)c3)nc3occn23)n1)c1ccc(C(F)(F)F)cc1	f
CC(=O)OC[C@]12CC[C@@H](C(=O)CBr)[C@@H]1[C@H]1CC[C@@H]3[C@@]4(C)CCCNC(C)(C)[C@@H]4CC[C@@]3(C)[C@]1(C)CC2	t
O=C(N=c1n(-c2ccccc2)nc2n1CCN2C1=NCCN1C(=O)c1ccc(Cl)cc1)c1ccc(Cl)cc1	f

// next entry
# fetch the recorded call for Nc1ccc(Cl)c([N+](=O)[O-])c1 here f

----------
Tested on: U251 CNS
Assay Text: NCI-60 one-dose screen, 48 h
Test Settings: 10 µM unless noted
This is part of a sample that, as a whole, favours compounds with a hit. Of some 83,000 tested, about 20% had one in any assay. Activity calls are given as the source filed them. Rule for the calls: active = growth percent below 10; inactive = the rest.
Just give me one of these, please: active, inactive

The following compounds have reported results that may help.
Compound	Label
CN(C)c1ccc(-c2ccc(-c3ccc(C(=N)N)cc3)s2)cc1	active
CCN(CC)CCS(=O)(=O)CCNc1ccnc2cc(Cl)ccc12	active
O=C(Nc1ccc(CN2CCOCC2)c(C(F)(F)F)c1)c1nc2ccc3[nH]ncc3c2c2c1CCCC2	inactive
COc1cc(C)cc2oc3oc(=N)c(C(=O)c4ccccc4)cc3c(=O)c12	inactive
CCN(CCNc1ccc(C)c2sc3cc(Cl)ccc3c(=O)c12)CC(C)O (stereo unspecified)	inactive
CCN1CCN(CC(=O)Nc2nc3ccc(NCc4ccc(Cl)cc4)cc3s2)CC1	inactive
CC(C)CSc1ncnc2nc[nH]c12	inactive
CC1(C)CC(=O)c2c(ccc(C(=O)C[C@@H](N)CO)c2N)O1	active

Name the outcome recorded for CCOC(CNC(=O)c1cccc([N+](=O)[O-])c1)OCC in the assay. inactive

# lookup: test call for COc1ccc2nc3ccccc3c(NCCNCCO)c2c1 active

For O=C1Nc2ccccc2/C1=C/C(=O)c1ccc(N2CCCCC2)cc1 , which call appears in the assay record? inactive

----------
Test system: CAKI-1 renal
Assay Text: NCI-60 one-dose screen, 48 h
Test Settings: 10 µM unless noted
This is part of a sample that, as a whole, favours compounds with a hit. Of some 83,000 tested, about 20% had one in any assay. Activity calls are given as the source filed them. The calls were made as follows: active = growth percent below 10; inactive = the rest.
Bench note: report the call from True for active, False for inactive

Please review the following examples before continuing.
Compound	Label
COc1ccc(C(=O)CSc2nnc(-c3cc(-c4ccccc4)nc4ccccc34)o2)cc1	False
Cc1cnc(N)nc1OCC(C)(C)CNC(=O)c1cccc(-c2ccc(S(=O)(=O)Nc3ccc4c(c3)N(C(=O)C3CC3)CCC4)cc2)c1	False
COc1ccc2c(c1)C(C)Cc1c(Cl)ncnc1N2C (configuration not stated)	True
O=[N+]([O-])c1ccc(O)c(-c2nc3ccccc3s2)c1	False
CSc1nc(N)c(N=Nc2ccc(S(=O)(=O)Nc3nnc(C)s3)cc2)c(=O)[nH]1	False
O=C1CC(c2ccccc2)Cc2nc3ccc(Br)cc3cc21 (configuration not stated)	False
COC(=O)[C@]1(C)CC[C@]2(C)CC[C@]3(C)C(=CC(=O)[C@@H]4[C@@]5(C)CCC(=O)NC(C)(C)[C@@H]5CC[C@]43C)[C@@H]2C1	True
COc1cc(/C=C/C(=O)/C=C/c2ccc(-n3ccnc3)cc2)ccc1O	False

Please find the next compound below.
Per the records of this test, what outcome belongs to O=C(CSc1nc2ccc([N+](=O)[O-])cc2[nH]1)Nc1cccc(Cl)c1 ? False

----------
System: HT29 colon
Assay Text: NCI-60 one-dose screen, 48 h
Test Settings: 10 µM unless noted
Compounds without any hit were thinned out: in the full panel of roughly 83,000, 20% have a hit. Calls of active or inactive are those of the source. The calls were made as follows: active = growth percent below 10; inactive = the rest.
Field 'call' accepts Y = active, N = inactive

Solved entries (count: 3):
Compound	Measured Target	Label
Cn1ncc2c(Nc3ccc(O)cc3)nc(Cl)nc21	HT29 colon	N
CCCCCCNC(=O)Nc1ncnc2c1ncn2-c1ccccc1	HT29 colon	N
COc1ccc(C(=O)CCC(=O)O)cc1	HT29 colon	N

Status in this test for N=C(N)c1ccc(-c2ccc(-c3ccc(-c4cccs4)s3)s2)cc1F ? N

Hello, I am checking results. What call was entered for CCOC(=O)Nc1ccc2c(c1)/C(=N\NC(=S)NC)c1ccccc1-2 ? N

Which outcome was entered for the compound Cc1ccc(N)c(O)c1 in this test? N

Field: outcome | Entry: CCN(CC)c1ccc2cc(NC(=O)OCCNC(=O)CCNC(=O)[C@H](CC(C)C)NC(=O)C(C)(C)NC(=O)C(C)(C)NC(=O)[C@H](CC(C)C)NC(=O)CCNC(=O)C(C)(C)NC(=O)[C@H](CC(C)C)NC(=O)CCNC(=O)[C@@](C)(CC)NC(=O)[C@H](C)NC(=O)CCNC(=O)C(C)(C)NC(=O)[C@H](C)NC(=O)[C@@H]3CCCN3C(=O)[C@@](C)(CC)NC(=O)[C@H](Cc3ccccc3)NC(=O)C3CCCN3C(=O)C(C)(C)NC(=O)C3CCCN3C(=O)C(C)(C)NC(C)=O)c(=O)oc2c1 (some centres not stated) Y

----------
System: A549/ATCC NSCLC
Assay Text: NCI-60 one-dose screen, 48 h
Test Settings: 10 µM unless noted
This is part of a sample that, as a whole, favours compounds with a hit. Of some 83,000 tested, about 20% had one in any assay. Calls of active or inactive are those of the source. Rule for the calls: active = growth percent below 10; inactive = the rest.
Please reply with one of these outcomes: active, inactive

Cpd Smiles	Label
CCn1cc(-c2cc(-c3ccc(Cl)cc3)nc(N)n2)c(-c2ccc(Br)cc2)n1	inactive

For this compound, state the assay outcome: NC1=NC(=O)NC1(c1ccccc1)c1ccccc1 inactive

Write down the call the test reported for this compound. Item: CCN(CC)c1cc(N)c(Cc2c(N)cc(N(CC)CC)cc2Cl)c(Cl)c1 inactive

How was COCCCNc1nc(NC(=O)c2cc(Br)cc(C(F)(F)F)c2)cc(-c2cccnc2)n1 classified in this test? inactive

Identify the outcome logged in this assay for the compound shown: C#CCNC(=O)CC[C@@H](C)[C@H]1CC[C@H]2[C@@H]3CC[C@@H]4CC(=O)CC[C@]4(C)[C@H]3CC[C@]12C active

----------
System: RXF 393 renal
Assay Text: NCI-60 one-dose screen, 48 h
Test Settings: 10 µM unless noted
About 83,000 compounds went through this panel and 20% of them were active in at least one assay; those are over-represented in the sample as a whole. Calls of active or inactive are those of the source. The calls were made as follows: active = growth percent below 10; inactive = the rest.
Permitted responses: active, inactive

Compound	Label
CCCCOC(=O)c1cccc([N+](=O)[O-])c1	inactive

Call for entry CCOC(=O)C(c1ccccc1)N1C(=O)c2ccccc2C1=O (centres undefined) : inactive

Any idea what this test logged for C=C(C)[C@@H]1CC[C@]2(COCCCN)CC[C@]3(C)[C@H](CC[C@@H]4[C@@](C)(CCCNCCCN)[C@H](C(=C)C)CC[C@]43C)[C@@H]12 ? active

Look up the recorded call for COc1ccc(C2NC(=O)C(C#N)c3c2sc2c(F)cccc32)cc1 (centres undefined) in this test. inactive

I'd appreciate the recorded outcome for Clc1ccc(N2CCN(CCCN3CCN(c4cccc(Cl)c4)CC3)CC2)cc1 from this test. inactive

Identify the outcome logged in this assay for the compound shown: O=C1CC(c2ccc3c(c2)OCO3)Nc2ccccc21 (centres undefined) active

Can you look up the reported call for COc1cc(/C=C/C(=O)/C=C/c2ccc(-n3ccnc3C)cc2)ccc1O for me? inactive

Check the results log: what was the call for CCN=Cc1c(O)c(O)c(C(C)C)c2cc(C)c(-c3c(C)cc4c(C(C)C)c(O)c(O)c(C=NCC)c4c3O)c(O)c12 ? inactive

Name the outcome recorded for COc1ccc(C(=O)CCC(=O)O)cc1 in the assay. inactive

Please state the recorded outcome for this compound: CC(C)(C)c1cc(C(=O)Nc2ccc(C(=O)NCCN)cc2)cc(C(C)(C)C)c1 inactive

What call does the record list for C=CC1=C(C)C2=NC1=CC1=NC(=CC3=C(C)C4=C(O)C(C(=O)O)C(=C5NC(=C2)C(C)C5CCC(=O)O)C4=N3)C(CC)=C1C (centres undefined) ? inactive

Please share the test call associated with CCOC(=O)COc1c(C)cc(SSc2cc(C)c(OCC(=O)OCC)c(C)c2)cc1C . inactive

# fetch the recorded call for C#CCNC(=O)CC[C@]1(C)[C@H]2CC[C@@H]3[C@@H]([C@@](C)(O)CCC=C(C)C)CC[C@@]3(C)[C@]2(C)CC[C@H]1C(=C)C here inactive

Recorded test call requested for CCOc1ccc(S(=O)(=O)Nc2ccc3c(c2)N(S(=O)(=O)CC)CCC3)cc1 inactive

// provenance: PubChem BioAssay (NCI)
